- assayedSystem: thromboxane synthetase enzyme (Rattus norvegicus, UniProt P49430)
- Construct: endogenous in cells; host or cells: washed platelets from arterial blood of male Okamoto-Aoki spontaneously hypertensive rats (animals from Taconic Farms, Germantown, N.Y.)
- assay: Thromboxane synthetase enzyme inhibition (TXB2 formation in washed platelets, RIA)
- Format: cell-based, spontaneously hypertensive rat
- conditionDescription: 1×10^-4 Molar; SHR platelets, 10 min at 37° C.
Exercise: state measured % Inhibition (Thromboxane Synthetase Enzyme Inhibition) for each of the compounds provided.
One number for each entry, in %.

Before answering, review these 3 worked examples.
Ask | I have this compound here, O=C(O)/C=C/C(=O)O.c1cc2c3c(cccc3c1)C(NCCCCn1ccnc1)=N2 , and I need its recorded % Inhibition (Thromboxane Synthetase Enzyme Inhibition).
Reply | 100

Ask | I have this compound here, O=C(O)/C=C/C(=O)O.c1cc2c3c(cccc3c1)C(NCCCn1cnc3ccccc31)=N2 , and I need its recorded % Inhibition (Thromboxane Synthetase Enzyme Inhibition).
Reply | 90

Ask | I have this compound here, c1cc2c3c(cccc3c1)C(NCCCCn1ccnc1)=N2 [N-(4-(1H-imidazol-1-yl)butyl)benz(cd)indol-2-amine sesquibut] , and I need its recorded % Inhibition (Thromboxane Synthetase Enzyme Inhibition).
Reply | 98

Provide reported % Inhibition (Thromboxane Synthetase Enzyme Inhibition) for each item, in the same order as listed.
1. c1cc2c3c(cccc3c1)C(NCCCn1cnc3ccccc31)=N2
2. C(=C/Cn1ccnc1)/CNC1=Nc2cccc3cccc1c23

Reply |
60
100

###

Exercise: state measured inhibition at 100 µM for each of the compounds provided.
- assayedSystem: thromboxane synthetase enzyme (Rattus norvegicus, UniProt P49430)
- Construct: endogenous in cells; host or cells: washed platelets from arterial blood of male Okamoto-Aoki spontaneously hypertensive rats (animals from Taconic Farms, Germantown, N.Y.)
- Sequence (P49430 1-533): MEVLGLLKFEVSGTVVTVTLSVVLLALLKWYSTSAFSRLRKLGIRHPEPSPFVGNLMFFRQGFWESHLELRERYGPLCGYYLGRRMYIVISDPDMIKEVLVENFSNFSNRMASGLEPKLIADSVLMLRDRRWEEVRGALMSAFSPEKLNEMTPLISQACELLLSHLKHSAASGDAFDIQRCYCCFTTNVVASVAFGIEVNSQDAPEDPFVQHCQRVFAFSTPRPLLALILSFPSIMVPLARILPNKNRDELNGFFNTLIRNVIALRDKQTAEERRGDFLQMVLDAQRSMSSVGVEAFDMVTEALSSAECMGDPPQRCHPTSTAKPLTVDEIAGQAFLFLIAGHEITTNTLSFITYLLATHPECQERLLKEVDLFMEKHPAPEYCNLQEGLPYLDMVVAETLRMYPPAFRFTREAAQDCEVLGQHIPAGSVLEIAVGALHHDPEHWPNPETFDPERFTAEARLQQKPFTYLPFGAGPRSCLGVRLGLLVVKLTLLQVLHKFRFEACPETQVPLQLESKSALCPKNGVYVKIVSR
- assay: Thromboxane synthetase enzyme inhibition (TXB2 formation in washed platelets, RIA)
- Assay type: cell-based, spontaneously hypertensive rat
- conditionDescription: 1×10^-4 Molar; SHR platelets, 10 min at 37° C.; read-out: % Inhibition (Thromboxane Synthetase Enzyme Inhibition)
Answers are plain numbers, in %.

Before answering, review these 3 worked examples.
Ask | I have this compound here, O=C(O)/C=C/C(=O)O.c1cncc(OCCCNC2=Nc3cccc4cccc2c34)c1 [fumarate] , and I need its recorded inhibition at 100 µM.
Reply | 94

Ask | I have this compound here, O=C(O)/C=C/C(=O)O.c1cc2c3c(cccc3c1)C(NCc1ccc(Cn3ccnc3)cc1)=N2 [fumarate] , and I need its recorded inhibition at 100 µM.
Reply | 100

Ask | I have this compound here, c1ccc(CCCCNC2=Nc3cccc4cccc2c34)nc1 , and I need its recorded inhibition at 100 µM.
Reply | 89

Provide reported inhibition at 100 µM for each item, in the same order as listed.
1. CC(CCNC1=Nc2ccc(Br)c3cccc1c23)n1ccnc1 (stereo not shown)
2. CC(=O)N(CCCc1cccnc1)C1=Nc2cccc3cccc1c23
3. O=C(O)/C=C/C(=O)O.c1ccc(C(CCn2ccnc2)NC2=Nc3cccc4cccc2c34)cc1 (stereo not shown) [fumarate]

Reply |
1: 100; 2: 95; 3: 100

Provide reported inhibition at 100 µM for each item, in the same order as listed.
1. c1ccc(-c2nccn2CCCNC2=Nc3cccc4cccc2c34)cc1
2. C(=C/Cn1ccnc1)/CNC1=Nc2cccc3cccc1c23.Cl.Cl [dihydrochloride]
3. Clc1cc(Cl)c2cccc3c2c1N=C3NCCCCn1ccnc1
4. O=C(O)/C=C/C(=O)O.c1cc2c3c(cccc3c1)C(NCCCCCCCCCCn1ccnc1)=N2 [fumarate]

Reply |
100
97
99
65
